- tested.system: T1, tissue factor (S33 to E251) (Homo sapiens, UniProt P13726)
- T1 construct: tissue factor (TF), residues S33 to E251; the antigen of the antibody D3h44 in PDB 1JPS; The tag was removed with Ulp1; tag-free TF was used; Antigen residues named in the text (S202, K169, P194, I152) follow the numbering of PDB 1JPS, not that of the construct limits; also called TF; antigen; source: E. coli BL21 (DE3), purified (Ni-NTA, SEC); not shown: His6, N-terminal, cleaved; SUMO, …
- T1 sequence (P13726 33-251): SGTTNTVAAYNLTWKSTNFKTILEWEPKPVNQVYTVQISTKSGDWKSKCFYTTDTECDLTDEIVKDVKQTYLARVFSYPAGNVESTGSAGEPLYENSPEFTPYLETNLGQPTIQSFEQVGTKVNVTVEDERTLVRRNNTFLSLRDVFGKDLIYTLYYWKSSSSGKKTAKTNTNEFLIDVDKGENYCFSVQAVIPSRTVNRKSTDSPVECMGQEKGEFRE
- assay.comment: SPR; Biacore 8K; TF immobilised on a CM5 chip by amine coupling (450-750 response units); Fab as analyte; single-cycle kinetics, association 120 s, dissociation 1800 s, no regeneration; PBS with 0.005% Tween-20; three measurements
- test.context: both partners purified
Recorded Kd by entry
Numeric answer only, unit nM assumed.

| binder | unit.text | Kd |
| --- | --- | --- |
| D3h44 Fab L-H91S (Fab, V domains shown, as the heavy chain of m2 (PDB 1JPS chain H); as the light chain of m2 (PDB 1JPS chain L) with the stated change; Tag as for m2; source: ExpiCHO, purified (Ni-NTA, SEC)) VH: EVQLVESGGGLVQPGGSLRLSCAASGFNIKEYYMHWVRQAPGKGLEWVGLIDPEQGNTIYDPKFQDRATISADNSKNTAYLQMNSLRAEDTAVYYCARDTAAYFDYWGQGTLVTVSS VL: DIQMTQSPSSLSASVGDRVTITCRASRDIKSYLNWYQQKPGKAPKVLIYYATSLAEGVPSRFSGSGSGTDYTLTISSLQPEDFATYYCLQSGESPWTFGQGTKVEIK | nM | 17 |
| D3h44 Fab L-H91N (Fab, V domains shown, as the heavy chain of m2 (PDB 1JPS chain H); as the light chain of m2 (PDB 1JPS chain L) with the stated change; Tag as for m2; source: ExpiCHO, purified (Ni-NTA, SEC)) VH: EVQLVESGGGLVQPGGSLRLSCAASGFNIKEYYMHWVRQAPGKGLEWVGLIDPEQGNTIYDPKFQDRATISADNSKNTAYLQMNSLRAEDTAVYYCARDTAAYFDYWGQGTLVTVSS VL: DIQMTQSPSSLSASVGDRVTITCRASRDIKSYLNWYQQKPGKAPKVLIYYATSLAEGVPSRFSGSGSGTDYTLTISSLQPEDFATYYCLQNGESPWTFGQGTKVEIK | nM | 0.2 |

Continue with the next binder.
Input line: Request the reported Kd associated with D3h44 Fab L-N34D (Fab, V domains shown, as the heavy chain of m2 (PDB 1JPS chain H); as the light chain of m2 (PDB 1JPS chain L) with the stated change; Tag as for m2; source: ExpiCHO, purified (Ni-NTA, SEC)) VH: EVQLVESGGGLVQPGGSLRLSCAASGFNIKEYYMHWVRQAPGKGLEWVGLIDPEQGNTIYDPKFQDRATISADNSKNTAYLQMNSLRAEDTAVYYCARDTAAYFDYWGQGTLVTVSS VL: DIQMTQSPSSLSASVGDRVTITCRASRDIKSYLDWYQQKPGKAPKVLIYYATSLAEGVPSRFSGSGSGTDYTLTISSLQPEDFATYYCLQHGESPWTFGQGTKVEIK
Output line: 0.31
